# SYSTEM_TESTED: Prostaglandin G/H synthase 2 (Homo sapiens, UniProt P35354)
# Sequence (P35354 whole entry): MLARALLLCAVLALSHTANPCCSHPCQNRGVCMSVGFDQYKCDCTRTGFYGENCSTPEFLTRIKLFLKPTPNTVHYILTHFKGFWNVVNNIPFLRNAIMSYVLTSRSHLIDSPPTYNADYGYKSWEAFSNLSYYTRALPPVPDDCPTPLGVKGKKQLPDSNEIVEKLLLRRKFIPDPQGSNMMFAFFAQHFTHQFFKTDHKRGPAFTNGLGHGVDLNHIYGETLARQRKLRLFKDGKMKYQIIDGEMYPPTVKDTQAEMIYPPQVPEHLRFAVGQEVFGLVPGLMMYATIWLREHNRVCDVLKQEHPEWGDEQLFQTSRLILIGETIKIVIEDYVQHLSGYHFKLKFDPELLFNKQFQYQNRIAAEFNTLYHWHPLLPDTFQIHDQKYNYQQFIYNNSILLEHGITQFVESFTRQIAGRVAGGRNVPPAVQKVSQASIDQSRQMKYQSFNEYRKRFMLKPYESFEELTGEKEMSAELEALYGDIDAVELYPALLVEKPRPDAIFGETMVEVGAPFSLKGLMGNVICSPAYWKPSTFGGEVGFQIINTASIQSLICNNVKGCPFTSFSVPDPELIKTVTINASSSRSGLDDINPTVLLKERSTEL
# ASSAY_SUMMARY: Inhibitory activity against human prostaglandin G/H synthase 2 in ECV-304 cells measured by the presence of PGE-2
READOUT_LABEL: IC50 (nM)

Past entries and their recorded results:
* COc1ccc(NNC(=O)c2ccccc2)cc1 | 180
* Cc1ccc(NNC(=O)c2ccccc2)cc1 | 330

I = COc1ccc(-n2nc(-c3ccc(Cl)cc3)c3c2CCC(N(O)C(C)=O)C3)cc1 (configuration not stated)
II = COc1ccc(NNC(=O)c2ccc(Cl)cc2)cc1
III = COc1ccc(C(=O)NNc2ccc(Cl)cc2)cc1
Prompt: Descending sort on IC50 required. Answer format: list of labels, ordered as asked.
Response: I, III, II
(I: 2400 nM, III: 470 nM, II: 130 nM)
